Readings of EC50 (nM); Ca2+ induction in HEK293 cells stably expressing the human ghrelin receptor for the listed binders
- Experimental System: human growth hormone secretagogue receptor type 1a (human, UniProt Q92847 1-366)
- Sequence (Q92847 whole entry): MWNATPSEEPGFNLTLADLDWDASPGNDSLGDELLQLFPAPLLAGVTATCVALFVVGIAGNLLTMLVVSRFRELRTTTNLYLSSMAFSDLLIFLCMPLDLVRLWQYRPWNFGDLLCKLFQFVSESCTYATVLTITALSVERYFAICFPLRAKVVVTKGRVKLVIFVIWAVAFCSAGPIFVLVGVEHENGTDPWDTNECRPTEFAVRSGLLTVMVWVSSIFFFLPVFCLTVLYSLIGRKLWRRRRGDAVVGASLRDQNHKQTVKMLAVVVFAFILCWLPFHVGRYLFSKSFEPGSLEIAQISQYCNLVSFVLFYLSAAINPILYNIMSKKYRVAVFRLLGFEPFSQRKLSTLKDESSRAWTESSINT
- Test Name: cell-based or functional assay
[ ]: non-standard residue; d: D form. The star is where a group is joined. Octanoyl = CCCCCCCC(=O)*; Dap = NC[C@H](N)C(=O)O; Octyl = CCCCCCCC*
Quick reminder: number only, in nM, skip the unit.

[[record]]
binder = "RSFLSPEHQRVQQRKESKKPPAKLQPR (N-terminal Orn (ornithine, stands for X1 and X2 together); next residue Ser(O-octyl) (position 3 of the formula); C-terminal amide (-NH2)) [H-Orn-S(O-octyl)-FLSPEHQRVQQRKESKKPPAKLQPR-NH2]"
assay_result = 0.527

[[record]]
binder = "H-PS[Dap](Octanoyl)FLSP-NH2 (SMILES CCCCCCCC(=O)NC[C@H](NC(=O)[C@H](CO)NC(=O)[C@@H]1CCCN1)C(=O)N[C@@H](Cc1ccccc1)C(=O)N[C@@H](CC(C)C)C(=O)N[C@@H](CO)C(=O)N1CCC[C@H]1C(N)=O) [H-PS-Dap(N-octanoyl)-FLSP-NH2]"
assay_result = 0.26


Inquiry: Query EC50 (nM); Ca2+ induction in HEK293 cells stably expressing the human ghrelin receptor for H-PSS(Octyl)FLSPEHSRVSSR-NH2 (SMILES CCCCCCCCOC[C@H](NC(=O)[C@H](CO)NC(=O)[C@@H]1CCCN1)C(=O)N[C@@H](Cc1ccccc1)C(=O)N[C@@H](CC(C)C)C(=O)N[C@@H](CO)C(=O)N1CCC[C@H]1C(=O)N[C@@H](CCC(=O)O)C(=O)N[C@@H](Cc1c[nH]cn1)C(=O)N[C@@H](CO)C(=O)N[C@@H](CCCNC(=N)N)C(=O)N[C@H](C(=O)N[C@@H](CO)C(=O)N[C@@H](CO)C(=O)N[C@@H](CCCNC(=N)N)C(N)=O)C(C)C) [H-PS-S(O-octyl)-FLSPEHSRVSSR-NH2]
Reply text: 0.467

Inquiry: Query EC50 (nM); Ca2+ induction in HEK293 cells stably expressing the human ghrelin receptor for XSSFLSPEHQRVQQRKESKKPPAKLQPR (DPro at position 1; Ser(O-octyl) at position 3; K(hexadecanoyl) at position 19; C-terminal -OH) [H-[DPro]-S-S(O-octyl)-FLSPEHQRVQQRKES-K(hexadecanoyl)-KPPAKLQPR-OH]
Reply text: 4.63

Inquiry: Query EC50 (nM); Ca2+ induction in HEK293 cells stably expressing the human ghrelin receptor for H-PSS(Octyl)FLSPEHSR-NH2 (SMILES CCCCCCCCOC[C@H](NC(=O)[C@H](CO)NC(=O)[C@@H]1CCCN1)C(=O)N[C@@H](Cc1ccccc1)C(=O)N[C@@H](CC(C)C)C(=O)N[C@@H](CO)C(=O)N1CCC[C@H]1C(=O)N[C@@H](CCC(=O)O)C(=O)N[C@@H](Cc1c[nH]cn1)C(=O)N[C@@H](CO)C(=O)N[C@@H](CCCNC(=N)N)C(N)=O) [H-PS-S(O-octyl)-FLSPEHSR-NH2]
Reply text: 0.44

Inquiry: Query EC50 (nM); Ca2+ induction in HEK293 cells stably expressing the human ghrelin receptor for XSSFLSPEHQRVQQRKESKKPPAKLQPR (DPro at position 1; Ser(O-octyl) at position 3; C-terminal -OH) [H-[DPro]-S-S(O-octyl)-FLSPEHQRVQQRKESKKPPAKLQPR-OH]
Reply text: 0.77
